B1: TRIM43 (parent)
chain: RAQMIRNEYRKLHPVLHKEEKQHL

# Variants of: B1
# TEST: protein stability index of a GFP-peptide fusion (GPS, HEK-293T) (PSI 1-6); higher = more stable;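 further: lentivirally expressed fusions sorted by FACS into six bins by GFP to DsRed ratio, PSI derived from sequencing read proportions per bin multiplied by bin number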
# CONDITION_CONTEXT: c terminus: a fixed tail appended
Catalogue of protein stability index values
Just the number, please, no unit attached.

# annotated cases, reported protein stability index shown
{"VARIANT_SPEC": "L12V", "protein stability index": 2.97}
{"VARIANT_SPEC": "N7G", "protein stability index": 3.08}
{"VARIANT_SPEC": "L16F", "protein stability index": 3.04}
{"VARIANT_SPEC": "K21T", "protein stability index": 2.92}
{"VARIANT_SPEC": "V15H", "protein stability index": 2.98}

Data point: `L12W` ; protein stability index = 2.96

Data point: `E19S` ; protein stability index = 2.92

Data point: `H23R` ; protein stability index = 2.94
